Recorded values, source BigSolDB 2.1.

Conditions: in isopropanol, 313.15 K
quantity: solubility (mole fraction)

[[record]]
smiles_code = "CC(=O)[C@H]1CC[C@H]2[C@@H]3CCC4=CC(=O)CC[C@]4(C)[C@H]3CC[C@]12C"
quantity = "solubility (mole fraction)"
measured_number = 0.0269


* * *

Conditions: in acetone, 313.15 K
quantity: solubility (mole fraction)

[[record]]
smiles_code = "CC(=O)[C@H]1CC[C@H]2[C@@H]3CCC4=CC(=O)CC[C@]4(C)[C@H]3CC[C@]12C"
measured_number = 0.076


* * *

Details: in acetone, 278.15 K
quantity: solubility (mole fraction)

[[record]]
smiles_code = "CC(=O)[C@H]1CC[C@H]2[C@@H]3CCC4=CC(=O)CC[C@]4(C)[C@H]3CC[C@]12C"
result = 0.0143


* * *

Conditions: in ethyl acetate, 288.15 K
quantity: solubility (mole fraction)

[[record]]
smiles_code = "CC(=O)[C@H]1CC[C@H]2[C@@H]3CCC4=CC(=O)CC[C@]4(C)[C@H]3CC[C@]12C"
quantity = "solubility (mole fraction)"
measured_number = 0.0215


* * *

Conditions: in acetonitrile, 278.15 K
quantity: solubility (mole fraction)

[[record]]
smiles_code = "CC(=O)[C@H]1CC[C@H]2[C@@H]3CCC4=CC(=O)CC[C@]4(C)[C@H]3CC[C@]12C"
measured_number = 0.00716


* * *

Details: in acetonitrile, 313.15 K
quantity: solubility (mole fraction)

[[record]]
smiles_code = "CC(=O)[C@H]1CC[C@H]2[C@@H]3CCC4=CC(=O)CC[C@]4(C)[C@H]3CC[C@]12C"
quantity = "solubility (mole fraction)"
measured_number = 0.0508


* * *

Conditions: in methanol, 323.15 K
quantity: solubility (mole fraction)

[[record]]
smiles_code = "CC(=O)[C@H]1CC[C@H]2[C@@H]3CCC4=CC(=O)CC[C@]4(C)[C@H]3CC[C@]12C"
quantity = "solubility (mole fraction)"
measured_number = 0.0412


* * *

Details: in n-butanol, 278.15 K
quantity: solubility (mole fraction)

[[record]]
smiles_code = "CC(=O)[C@H]1CC[C@H]2[C@@H]3CCC4=CC(=O)CC[C@]4(C)[C@H]3CC[C@]12C"
result = 0.00706


* * *

Settings: in ethanol, 318.15 K
quantity: solubility (mole fraction)

[[record]]
smiles_code = "CC(=O)[C@H]1CC[C@H]2[C@@H]3CCC4=CC(=O)CC[C@]4(C)[C@H]3CC[C@]12C"
measured_number = 0.0319


* * *

Details: in acetone, 318.15 K
quantity: solubility (mole fraction)

[[record]]
smiles_code = "CC(=O)[C@H]1CC[C@H]2[C@@H]3CCC4=CC(=O)CC[C@]4(C)[C@H]3CC[C@]12C"
quantity = "solubility (mole fraction)"
result = 0.094


* * *

Details: in isopropanol, 318.15 K
quantity: solubility (mole fraction)

[[record]]
smiles_code = "CC(=O)[C@H]1CC[C@H]2[C@@H]3CCC4=CC(=O)CC[C@]4(C)[C@H]3CC[C@]12C"
measured_number = 0.0349


* * *

Details: in toluene, 298.15 K
quantity: solubility (mole fraction)

[[record]]
smiles_code = "CC(=O)[C@H]1CC[C@H]2[C@@H]3CCC4=CC(=O)CC[C@]4(C)[C@H]3CC[C@]12C"
measured_number = 0.13


* * *

Conditions: in isopropanol, 298.15 K
quantity: solubility (mole fraction)

[[record]]
smiles_code = "CC(=O)[C@H]1CC[C@H]2[C@@H]3CCC4=CC(=O)CC[C@]4(C)[C@H]3CC[C@]12C"
quantity = "solubility (mole fraction)"
result = 0.0115

